- TARGET DESC: HIV-1 Env of ZM53.12 (HIV-1)
- TEST DESCRIPTION: cell-based or functional assay
A collection of binders and their measured neutralization IC50
Form entry: value (ng/mL) — number only.

Query block: // query neutralization IC50 value for entry CAP256-VRC26.09 (antibody, V domains shown) VH: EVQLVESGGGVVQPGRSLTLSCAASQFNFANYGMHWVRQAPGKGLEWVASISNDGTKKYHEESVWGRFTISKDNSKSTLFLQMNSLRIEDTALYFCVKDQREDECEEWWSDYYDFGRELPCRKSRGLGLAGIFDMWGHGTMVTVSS VL: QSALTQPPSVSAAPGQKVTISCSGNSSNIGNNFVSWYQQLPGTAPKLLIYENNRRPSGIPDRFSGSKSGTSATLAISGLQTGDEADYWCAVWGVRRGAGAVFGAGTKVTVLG
Result block: 2

Query block: // query neutralization IC50 value for entry CAP256-VRC26.08 (antibody, V domains shown) VH: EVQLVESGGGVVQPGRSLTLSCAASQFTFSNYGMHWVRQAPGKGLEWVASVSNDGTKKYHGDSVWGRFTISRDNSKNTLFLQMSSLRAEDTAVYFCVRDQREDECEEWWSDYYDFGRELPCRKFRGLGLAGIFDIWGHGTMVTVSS VL: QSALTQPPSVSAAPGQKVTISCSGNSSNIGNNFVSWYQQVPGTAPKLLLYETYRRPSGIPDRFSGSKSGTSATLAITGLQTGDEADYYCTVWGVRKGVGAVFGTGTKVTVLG
Result block: 4

Query block: // query neutralization IC50 value for entry CAP256-VRC26.06 (antibody, V domains shown) VH: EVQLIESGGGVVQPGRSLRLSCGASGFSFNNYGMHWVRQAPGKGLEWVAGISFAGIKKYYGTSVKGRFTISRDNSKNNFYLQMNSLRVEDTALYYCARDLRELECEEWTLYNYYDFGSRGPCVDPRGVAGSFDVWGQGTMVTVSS VL: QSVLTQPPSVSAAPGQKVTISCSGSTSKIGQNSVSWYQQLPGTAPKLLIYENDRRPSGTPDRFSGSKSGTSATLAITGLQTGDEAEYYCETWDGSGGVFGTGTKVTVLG
Result block: 222

Now look at this entry.
Query block: // query neutralization IC50 value for entry CAP256-VRC26.07 (antibody, V domains shown) VH: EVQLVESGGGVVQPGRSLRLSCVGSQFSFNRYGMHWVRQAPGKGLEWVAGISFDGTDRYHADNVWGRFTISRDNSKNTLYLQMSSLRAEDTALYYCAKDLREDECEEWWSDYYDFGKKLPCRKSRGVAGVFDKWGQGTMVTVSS VL: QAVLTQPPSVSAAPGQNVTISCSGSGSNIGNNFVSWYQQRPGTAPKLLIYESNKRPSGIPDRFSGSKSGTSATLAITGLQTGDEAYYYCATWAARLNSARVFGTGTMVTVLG
Result block: 14

All values here come from patent US20200199204A1.
